- tgt: recombinant renin in human plasma (Homo sapiens)
- Sequence (P00797 67-406): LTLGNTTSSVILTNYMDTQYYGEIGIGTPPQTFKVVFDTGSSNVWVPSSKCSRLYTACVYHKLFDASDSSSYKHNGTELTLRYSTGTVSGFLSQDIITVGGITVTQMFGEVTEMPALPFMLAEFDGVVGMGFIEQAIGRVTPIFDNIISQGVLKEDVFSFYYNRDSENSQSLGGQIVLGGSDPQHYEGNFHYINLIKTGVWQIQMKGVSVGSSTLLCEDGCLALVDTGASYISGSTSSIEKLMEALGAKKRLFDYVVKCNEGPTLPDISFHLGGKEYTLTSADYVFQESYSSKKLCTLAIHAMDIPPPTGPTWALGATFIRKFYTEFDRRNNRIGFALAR
- measurement.description: Inhibition of renin in human plasma
- condition.details: human EDTA plasma, 37° C., 1 hour
pIC50: −log10 of the molar value.
experimental.readout: pIC50

[A] COCCCc1cc(CN(C(=O)[C@@H]2CNCC[C@H]2c2cc(=O)n(C)c3ccccc23)C2CC2)cc(OCCOC)c1 (relative stereo)
[B] COCCCc1cc(CN(C(=O)[C@@H]2CNCC[C@H]2c2cc(=O)n(C)c3cc(Cl)ccc23)C2CC2)cc(OCCOC)c1 (relative stereo)
Which has the higher pIC50, A or B ? Mark your answer with the label of the selected entry. B
